assay: Stability in human HCT116 cells by LCMS/MS in presence of 10% fetal bovine serum; assay type: ADME, cell-based, HCT-116

{"columns": ["molecule", "half-life"],
 "data": [
  ["COc1ccc(Cl)cc1N1CCN(C(=O)c2ccc(C(=O)C(F)(F)F)s2)CC1", "2 h"],
  ["O=C(c1ccc(C(=O)C(F)(F)F)s1)N1CCC(c2nnc(-c3ccccc3)o2)CC1", "2 h"],
  ["CC(NC(=O)c1ccc(C(=O)C(F)(F)F)s1)c1ccncc1 (stereo not given)", "5 h"],
  ["CC(NC(=O)c1ccc(C(=O)C(F)(F)F)s1)c1cccc2ccccc12 (stereo not given)", "3 h"],
  ["CN(Cc1ccc2nccnc2c1)C(=O)c1ccc(C(=O)C(F)(F)F)s1", "3.5 h"]
]}
